# Tested on: XIP peptide (Xip251-270) binding
# method.summary: small-molecule binders of XIP peptide, primary screen, biochemical, small-molecule microarray, fluorescence 635/667 nm, 0.1 µg/mL protein (AID 1182)
# experimental.parameters: fluorescent protein binding, 635 nm, higher = more signal, called active from +8 up or from −8 down
Classify as follows. Reported composite z-score greater than or equal to -0.1: satisfied. Reported composite z-score below: not satisfied.

C[C@H]1NC(=O)[C@H](Cc2ccccc2)NC(=O)[C@@]23C(=O)N[C@@H](Cc4ccccc4)C2[C@H](C)[C@@]2(C)O[C@H]2C3/C=C/C/C=C\CNC1=O (some centres not stated) :: not satisfied
COC(=O)C[C@@H]1C[C@H](C)[C@]2(O1)C(=O)N(Cc1ccccc1)c1ccc(NC(C)=O)cc12 :: not satisfied
C=CCNC(=O)[C@@H]1[C@H]2C(=O)O[C@H](c3ccccc3)[C@H](c3ccccc3)N2[C@H](c2ccc(OCCO)cc2)[C@@]12C(=O)Nc1ccccc12 :: satisfied
CN1C(=O)C2C(C1=O)C1C=C(CCCO)C2C(c2cccs2)N1C (configuration not stated) :: not satisfied
O=C1C=CC(=O)[C@@H]2CC(COc3ccccc3)=C3[C@@H](CCc4ccccc4)OB(O)C[C@@H]3[C@H]12 :: not satisfied
O=C1C2C=CC(C(O)c3ccc(-c4ccccc4)s3)N(n3cnnc3)C2C(=O)N1Cc1ccccc1 (configuration not stated) :: not satisfied

Now examine the next entry.
Kindly determine if composite z-score recorded for Cc1ccc(S[C@]2(C(=O)NCC(C)C)CC(=O)N(Cc3ccccc3Cl)[C@@H]2c2ccc(CO)cc2)cc1 is above or exactly -0.1. satisfied

====

Can you tell me composite z-score for the items I'm about to list?
# Test system: XIP peptide (Xip251-270)
# method.summary: small-molecule binders of XIP peptide, primary screen, biochemical, small-molecule microarray, fluorescence 635/667 nm, 0.5 µg/mL protein (AID 1183)
# experimental.parameters: small-molecule microarray binding, fluorescence 635 nm; higher = more signal
One number for each entry.

Quick one: give me composite z-score for each item below, same order please.
1. C=CCOC(=O)[C@H]1[C@@H]2C(=O)O[C@@H](c3ccccc3)[C@@H](c3ccccc3)N2[C@@H](c2ccc(OCCOC(=O)[C@@H]3C[C@@H]4C(=O)N5CCC[C@H]5C(=O)N4[C@@H]3c3ccc(O)cc3)cc2)[C@]12C(=O)Nc1ccccc12
2. COCCCNC(=O)[C@@]1(C)c2ccccc2C(=O)N(Cc2cc(C(F)(F)F)cc(C(F)(F)F)c2)[C@H]1c1ccc(CO)cc1
3. CC(C)NC(=O)[C@@H]1c2ccccc2C(=O)N(Cc2ccccc2Cl)[C@H]1c1ccc(CO)cc1
4. COC(=O)[C@]1(Cc2ccccc2N=[N+]=[N-])N=C(c2ccc(OCCCO)cc2)O[C@@H]1c1ccccc1N=[N+]=[N-]
5. CCN(CC)c1ccc(N2CC=CC34O[C@@H]5/C=C\CCCOC(=O)C5[C@H]3C(=O)N(C(CO)C(C)C)[C@@H]4C2=O)cc1 (stereo partly drawn)
6. C=CCNC(=O)[C@@H]1[C@H]2C(=O)O[C@H](c3ccccc3)[C@H](c3ccccc3)N2[C@H](c2ccc(O)cc2)[C@@]12C(=O)N(C(=O)OCCOC)c1ccccc12

1. 0.838
2. 0.875
3. 0.719
4. 0.614
5. 0.559
6. 0.525

Quick one: give me composite z-score for each item below, same order please.
1. CO[C@H]1O[C@H](CO)[C@@H](OC(=O)Nc2ccc(Oc3ccccc3)cc2)[C@H](OC(=O)Nc2ccccc2)[C@H]1OC(=O)Nc1ccccc1
2. CC(c1ccccc1)C(O)C1C=CC2C(=O)NC(=O)C2N1Nc1ccccn1 (stereo not drawn)
3. Cc1c(NC(=O)CC#N)c(=O)n(-c2ccccc2)n1C
4. C=C[C@@H](COC(C)=O)N(Cc1ccccc1[N+](=O)[O-])S(=O)(=O)c1ccc(Br)cc1
5. CC(=O)NCCCC[C@@H]1NC(=O)[C@@H]2C[C@H](C(=O)NCCCCN(C)C)[C@H](c3ccc(O)cc3)N2C1=O
6. O=C1OCC=C[C@H]2OC34C=CCN(c5ccc6ccccc6c5)C(=O)[C@H]3N(CCCO)C(=O)[C@@H]4[C@@H]12 (stereo partly drawn)

0.916
0.676
0.0029
0.387
-0.208
1.03

Quick one: give me composite z-score for each item below, same order please.
1. CC(=CC1CCCCC1)[C@@H](NC(=O)c1ccc(C(F)(F)F)cc1)c1ccc(-c2ccccc2)cc1
2. CCCCC=C[C@@H](NC(=O)c1ccc(C(=O)OC)cc1)c1ccccc1
3. COCCOC(=O)N1C(=O)[C@@]2(c3ccccc31)[C@H](C(=O)Nc1nc3ccccc3s1)[C@H]1C(=O)O[C@H](c3ccccc3)[C@H](c3ccccc3)N1[C@@H]2c1ccc(OCCO)cc1

[-0.569, 0.0677, 0.805]

Quick one: give me composite z-score for each item below, same order please.
1. C=C[C@H](C)[C@@H](O)c1ccc(O)c2ccccc12
2. CCOC(=O)[C@H]1C[C@H]2O[C@@]23C[C@H]1C(=O)N1CCCC1[C@@H]3O[Si](C)(C)C(C)(C)C (stereo partly drawn)
3. CN1C(=O)C2C(C1=O)C1C=C(CCCO)C2C(c2cccs2)N1C (stereo not drawn)
4. C=CCNC(=O)[C@@H]1[C@H]2C(=O)O[C@H](c3ccccc3)[C@H](c3ccccc3)N2[C@H](c2ccccc2OCCO)[C@@]12C(=O)Nc1ccc(C#CC3=CCCCC3)cc12
5. CC(C)CNC(=O)[C@@]1(c2ccc([N+](=O)[O-])cc2)CC(=O)N(CC23CC4CC(CC(C4)C2)C3)[C@@H]1c1ccc(CO)cc1I
6. [N-]=[N+]=NCc1ccccc1[C@@H]1OC(c2ccc(OCCCO)cc2)=N[C@]1(Cc1ccccc1N=[N+]=[N-])C(=O)NCc1ccccc1
7. O=C1OCCC=C[C@H]2OC34C=CCN(Cc5ccccc5)C(=O)[C@H]3N(CCCO)C(=O)[C@@H]4C12 (stereo partly drawn)

[0.507, -0.829, -0.0427, 0.691, 0.719, 0.442, -0.461]
